# assay.target: KAT-8 (Homo sapiens (Human))
# Sequence (Q9H7Z6 other isoform, or with tags, fused parts or gaps): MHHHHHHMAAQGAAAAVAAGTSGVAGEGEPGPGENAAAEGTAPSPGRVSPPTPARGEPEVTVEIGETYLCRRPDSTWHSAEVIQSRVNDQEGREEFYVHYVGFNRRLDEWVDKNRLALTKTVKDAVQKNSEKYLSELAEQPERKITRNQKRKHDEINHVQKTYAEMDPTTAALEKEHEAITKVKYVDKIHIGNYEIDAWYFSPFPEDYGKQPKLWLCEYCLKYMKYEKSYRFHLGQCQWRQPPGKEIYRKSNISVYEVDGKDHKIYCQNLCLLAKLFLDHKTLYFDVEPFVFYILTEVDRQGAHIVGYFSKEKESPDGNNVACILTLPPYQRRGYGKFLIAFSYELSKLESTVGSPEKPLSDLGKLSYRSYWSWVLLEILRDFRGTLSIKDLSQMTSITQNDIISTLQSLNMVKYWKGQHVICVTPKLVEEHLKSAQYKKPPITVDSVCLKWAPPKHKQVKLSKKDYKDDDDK
# assay.comment: KAT-8 biochemical inhibition assay (SAMDI mass spectrometry)
quantity.kind: IC50

Here is how some compounds turned out for IC50.
compound	assay.target	IC50
Cn1cnc(-c2cc(Cl)c(F)c(C(=O)NNS(=O)(=O)CC3CCN(C(=O)CO)C3)c2)c1 (stereo not drawn) [Compound I-89]	KAT-8 (Homo sapiens (Human))	10 to 50 µM
COc1ccc(CN(C)C(=O)N[C@H]2C[C@H](CS(=O)(=O)NNC(=O)c3cc(-c4cn(C)cn4)cc(Cl)c3F)C2)cc1 [Compound I-175]	KAT-8 (Homo sapiens (Human))	10 to 50 µM

Hello, I am looking for reported IC50 with KAT-8 (Homo sapiens (Human)) for Cn1cnc(-c2cc(Cl)c(F)c(C(=O)NNC3CCS(=O)(=O)C3)c2)c1 (stereo not drawn) [Compound I-232] . Could you help? 10 to 50 µM

Hello, I am looking for reported IC50 with KAT-8 (Homo sapiens (Human)) for CC1CCCCC1CS(=O)(=O)NNC(=O)c1cc(-c2cn(C)cn2)cc(Cl)c1F (stereo not drawn) [Compound I-335] . Could you help? 10 to 50 µM

Hello, I am looking for reported IC50 with KAT-8 (Homo sapiens (Human)) for COCCNC(=O)N1CCC(CS(=O)(=O)NNC(=O)c2cc(-c3cn(C)cn3)cc(Cl)c2F)C1 (stereo not drawn) [Compound I-190] . Could you help? 10 to 50 µM

Hello, I am looking for reported IC50 with KAT-8 (Homo sapiens (Human)) for Cn1cnc(-c2cc(Cl)c(F)c(C(=O)NNS(=O)(=O)C[C@H]3CCC[C@H](NC(=O)OC(C)(C)C)C3)c2)c1 [Compound I-350] . Could you help? 10 to 50 µM

====

# assay.target: UniProt Q92993
# assay.comment: KAT-5 biochemical inhibition assay (SAMDI mass spectrometry)
pIC50: −log10 of the molar value.
quantity.kind: pIC50

Here is how some compounds turned out for pIC50.
compound	assay.target	quantity.kind	value.reported
Cc1ccn(-c2cc(Cl)c(F)c(C(=O)NNS(=O)(=O)CC3CCOCC3)c2)n1	UniProt Q92993	pIC50	4.30 to 5.00
CNC1CCCC(CS(=O)(=O)NNC(=O)c2cc(-c3cn(C)cn3)cc(Cl)c2F)C1 (stereo not drawn)	UniProt Q92993	pIC50	4.30 to 5.00

Would you kindly look at the next entry?
Quick one: pIC50 of Cn1cnc(-c2cc(Cl)c(F)c(C(=O)NNS(=O)(=O)CC3CCN(S(C)(=O)=O)C3)c2)c1 (stereo not drawn) ? > 5.00

====

# assay.target: KAT-5 (Homo sapiens (Human), UniProt Q92993)
# Sequence (Q92993 other isoform, or with tags, fused parts or gaps): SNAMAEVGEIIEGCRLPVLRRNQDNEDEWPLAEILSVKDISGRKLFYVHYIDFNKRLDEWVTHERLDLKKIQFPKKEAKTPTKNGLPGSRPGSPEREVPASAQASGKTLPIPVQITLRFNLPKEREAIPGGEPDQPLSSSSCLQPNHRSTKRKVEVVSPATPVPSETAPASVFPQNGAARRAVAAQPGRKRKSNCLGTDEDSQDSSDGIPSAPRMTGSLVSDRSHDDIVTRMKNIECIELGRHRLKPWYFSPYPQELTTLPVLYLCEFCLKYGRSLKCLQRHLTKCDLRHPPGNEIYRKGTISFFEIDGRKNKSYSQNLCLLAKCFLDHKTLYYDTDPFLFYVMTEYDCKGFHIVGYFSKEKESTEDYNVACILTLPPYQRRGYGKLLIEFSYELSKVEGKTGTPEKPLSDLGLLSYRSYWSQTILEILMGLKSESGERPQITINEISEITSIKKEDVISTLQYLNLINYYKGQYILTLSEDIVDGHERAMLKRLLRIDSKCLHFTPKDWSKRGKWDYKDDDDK
# assay.comment: KAT-5 biochemical inhibition assay (SAMDI mass spectrometry)
quantity.kind: IC50

Here is how some compounds turned out for IC50.
compound	assay.target	IC50
Cn1cnc(-c2cc(Cl)c(F)c(C(=O)NNS(=O)(=O)C3CCN(C(=O)OC(C)(C)C)CC3)c2)c1	KAT-5 (Homo sapiens (Human), UniProt Q92993)	< 10 µM
Cn1cnc(-c2cc(Cl)c(F)c(C(=O)NNS(=O)(=O)N3CCOCC3)c2)c1	KAT-5 (Homo sapiens (Human), UniProt Q92993)	10 to 50 µM
Cc1ncn(-c2cc(Cl)c(F)c(C(=O)NNS(=O)(=O)CC3CCOCC3)c2)n1	KAT-5 (Homo sapiens (Human), UniProt Q92993)	10 to 50 µM
Cn1cnc(-c2cc(Cl)c(F)c(C(=O)NNS(=O)(=O)C[C@H]3CC[C@H](NC(=O)Cc4ccccn4)CC3)c2)c1	KAT-5 (Homo sapiens (Human), UniProt Q92993)	< 10 µM
Cc1cc(-c2cn(C)cn2)cc(C(=O)NNS(=O)(=O)CC2CCCCC2)c1C	KAT-5 (Homo sapiens (Human), UniProt Q92993)	> 100 µM
Cn1cnc(-c2cc(Cl)c(F)c(C(=O)NNS(=O)(=O)c3ccc(F)cc3)c2)c1	KAT-5 (Homo sapiens (Human), UniProt Q92993)	< 10 µM

Quick one: IC50 of CCC(=O)NC1CCCC(CS(=O)(=O)NNC(=O)c2cc(-c3cn(C)cn3)cc(Cl)c2F)C1 (stereo not shown) ? < 10 µM

Quick one: IC50 of Cn1cnc(-c2cc(Cl)c(F)c(C(=O)NNS(=O)(=O)C[C@@H]3CCC[C@@H](NC(=O)OC(C)(C)C)C3)c2)c1 ? < 10 µM

Quick one: IC50 of CCC(=O)N(C)C1CCC(CS(=O)(=O)NNC(=O)c2cc(-c3cn(C)cn3)cc(Cl)c2F)CC1 (stereo not shown) ? < 10 µM

Quick one: IC50 of Cn1cnc(-c2cc(Cl)c(F)c(C(=O)NNS(=O)(=O)c3cnn(CCO)c3)c2)c1 ? 10 to 50 µM

Data origin: patent US11685732B2
